experiment: Aqueous solubility of the compound in PBS buffer; assay type: physicochemical; conditions: PBS buffer; read-out: solubility
property-name: solubility (µM)
Report the figure in µM without appending any unit label.

Name the recorded solubility of the compound listed here: O=C(CCc1ccc(O)cc1)c1cc(O)ccc1O
160

* * *

assay: Permeability across apical to basolateral side in human Caco2 cells; assay type: ADME, cell-based; settings: Caco-2, read-out: permeability
property-name: Papp A→B (×10⁻⁶ cm/s)
Report the figure in ×10⁻⁶ cm/s without appending any unit label.

Name the recorded Papp A→B of the molecule listed here: O=C(CCc1ccc(O)cc1)c1cc(O)ccc1O
33.5

The origin of these recorded values is ChEMBL document CHEMBL4138200.
